Experiment: chemical genetic growth profiling, strain panel (AID 1159580);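 further: tested at 20 µM; growth read once vehicle control cultures reached saturation at 30 °C; 1 = growth at the plate median or of vehicle wells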
Details: S. cerevisiae deletion strains, growth OD, locus YDL101C, strain DUN1, stronger effect = lower value
Screen size: about 5,500 compounds; about 2,000 (36%) were called active. Not shown: some 18% with an inconclusive outcome. The list shows a part of the results.
Define the label as 1 when normalized growth is strictly less than 1 and as 0 in all remaining cases.

# example entries with known answers
[[record]]
compound = "CCOC(=O)c1[nH]c(Cc2[nH]c(C(=O)OCC)c(C)c2C)c(C)c1C"
class_name = 0

[[record]]
compound = "COc1cc(C(F)(F)F)cc(C(F)(F)F)c1C(=O)Nc1cc(C(F)(F)F)cc(C(F)(F)F)c1"
class_name = 0

[[record]]
compound = "CCOC(=O)c1c(C)cc(O)c(C=O)c1O"
class_name = 1

[[record]]
compound = "COc1ccc(NC(=O)c2cc(C(F)(F)F)cc(C(F)(F)F)c2)cn1"
class_name = 1

[[record]]
compound = "C=C1C([C@]2(C)C(CC(=O)OC)[C@@](C)(COC(C)=O)OC(=O)C[C@@H]2OC(C)=O)[C@@H](OC=O)[C@H](OC(=O)C(OC(C)=O)C(C)CC)[C@@]2(C)[C@H](c3ccoc3)CC(=O)C12O (stereo partly specified)"
class_name = 0


stdin: Lab note: confirm whether the reported normalized growth for this compound is below 1, equality not counting. compound: Cc1cc(O)c(C=O)c(O)c1C(=O)O
stdout: 0

stdin: # TODO verify normalized growth < 1 strictly for this compound: CCCCCCCCCCCCCCCC[N+](C)(C)C
stdout: 1
